# Assayed system: Inhibitor of nuclear factor kappa-B kinase subunit beta (Homo sapiens) (UniProt O14920);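 also: values are mean percent inhibition of IKKB, part of the GSK PKIS screening data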
# Sequence (whole entry): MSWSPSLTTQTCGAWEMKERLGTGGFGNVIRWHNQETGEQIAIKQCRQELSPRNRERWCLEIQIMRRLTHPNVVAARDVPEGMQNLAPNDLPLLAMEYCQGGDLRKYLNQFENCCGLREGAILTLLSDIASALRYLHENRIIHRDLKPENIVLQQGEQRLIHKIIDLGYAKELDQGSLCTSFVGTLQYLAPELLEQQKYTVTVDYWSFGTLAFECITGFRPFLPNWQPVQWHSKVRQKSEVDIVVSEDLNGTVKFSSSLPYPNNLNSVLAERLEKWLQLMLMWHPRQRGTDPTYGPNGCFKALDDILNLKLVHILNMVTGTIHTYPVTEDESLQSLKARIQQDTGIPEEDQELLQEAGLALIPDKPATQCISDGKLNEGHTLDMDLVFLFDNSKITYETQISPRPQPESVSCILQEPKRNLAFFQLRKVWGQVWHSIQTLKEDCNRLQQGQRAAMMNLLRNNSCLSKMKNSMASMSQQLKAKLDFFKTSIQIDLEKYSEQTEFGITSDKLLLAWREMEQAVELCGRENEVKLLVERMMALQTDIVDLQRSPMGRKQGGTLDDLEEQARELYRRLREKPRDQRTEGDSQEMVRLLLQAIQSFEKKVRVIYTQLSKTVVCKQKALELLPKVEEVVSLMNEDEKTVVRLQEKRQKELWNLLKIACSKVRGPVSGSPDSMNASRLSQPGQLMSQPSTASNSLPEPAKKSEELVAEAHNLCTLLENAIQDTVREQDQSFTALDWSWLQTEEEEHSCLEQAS
# Condition details: at 0.1 µM
Item-by-item account of inhibition
Property: inhibition (%)

                            structure_smiles    property  result_value
 0  NS(=O)(=O)c1ccc(NC=C2C(=O)Nc3ccc4ncsc4c32)cc1  inhibition          10.6
 1  COc1cccc(-n2ncc3c(N/N=C/c4ccc(C)cc4)ncnc32)c1  inhibition          6.84
 2             CCn1c(-c2nonc2N)nc2ccc(F)cc21  inhibition          7.24
 3  ON=C1CCc2cc(-c3nc(C4CCNCC4)[nH]c3-c3ccncc3)ccc21  inhibition          6.16
 4  COC(=O)c1ccc2c(c1)C(=Cc1cc(Br)c(O)c(Br)c1)C(=O)N2  inhibition          6.94
 5          CN(C)CCCn1c(-c2nonc2N)nc2cnccc21  inhibition          6.47
 6  NS(=O)(=O)c1ccc(-c2cc3ccncc3cc2OCc2ccccc2)cc1  inhibition          8.26
 7  Oc1cccc(-c2nc(-c3ccccc3)[nH]c2-c2ccncc2)c1  inhibition          5.25
 8  NS(=O)(=O)c1cccc(Nc2cc(-c3ccc(F)cc3)n[nH]2)c1  inhibition          5.51
 9   Cc1ccc(C(=O)NC2CC2)cc1-c1ccc2[nH]ncc2c1  inhibition         -3.22
10  COC(=O)Nc1nc2cc(Oc3ccc(NC(=O)Nc4cccc(Br)c4)cc3)ccc2[nH]1  inhibition          5.61

###

# Assayed system: Dual specificity mitogen-activated protein kinase kinase 1 (Homo sapiens) (UniProt Q02750);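 also: reported value is a mean percent inhibition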
# Sequence (Q02750 whole entry): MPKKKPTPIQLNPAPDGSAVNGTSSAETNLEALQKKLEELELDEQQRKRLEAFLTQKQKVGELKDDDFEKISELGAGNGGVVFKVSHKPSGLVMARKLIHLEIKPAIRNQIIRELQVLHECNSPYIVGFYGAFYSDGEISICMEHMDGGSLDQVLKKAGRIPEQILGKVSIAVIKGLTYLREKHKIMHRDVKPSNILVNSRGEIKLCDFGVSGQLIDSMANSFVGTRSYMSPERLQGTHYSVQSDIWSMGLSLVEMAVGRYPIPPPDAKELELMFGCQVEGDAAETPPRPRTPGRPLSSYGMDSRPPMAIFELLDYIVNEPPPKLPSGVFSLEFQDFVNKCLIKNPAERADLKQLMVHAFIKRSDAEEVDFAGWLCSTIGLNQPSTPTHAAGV
# Condition details: at 0.1 µM
Property: inhibition (%)

                            structure_smiles                            assayed_system  measure_unit  result_value
 0   Cc1ccc(C(=O)NC2CC2)cc1-c1ccc2[nH]ncc2c1  Dual specificity mitogen-activated protein kinase kinase 1 (Homo sapiens) (UniProt Q02750)             %         -3.43
 1  O=C1Nc2ccc(-c3cccnc3)cc2C1=Cc1cc(Br)c(O)c(Br)c1  Dual specificity mitogen-activated protein kinase kinase 1 (Homo sapiens) (UniProt Q02750)             %          4.59
 2     COc1cc(/C=N/Nc2ncnc3c2cnn3C(C)C)ccc1O  Dual specificity mitogen-activated protein kinase kinase 1 (Homo sapiens) (UniProt Q02750)             %          2.16
 3             CCOc1nccc2c1nc(-c1nonc1N)n2CC  Dual specificity mitogen-activated protein kinase kinase 1 (Homo sapiens) (UniProt Q02750)             %          3.44
 4   COc1ccc2ncnc(Nc3ccc(OCc4ccccc4)cc3)c2c1  Dual specificity mitogen-activated protein kinase kinase 1 (Homo sapiens) (UniProt Q02750)             %          3.95
 5  COc1cccc(-n2ncc3c(N/N=C/c4ccc(S(C)(=O)=O)cc4)ncnc32)c1  Dual specificity mitogen-activated protein kinase kinase 1 (Homo sapiens) (UniProt Q02750)             %          1.79
 6  NC(=O)c1sc(-n2cnc3ccccc32)cc1OCc1ccccc1Br  Dual specificity mitogen-activated protein kinase kinase 1 (Homo sapiens) (UniProt Q02750)             %          3.81
 7  Cc1ccc2c(c1)/C(=N/Nc1ccc(S(N)(=O)=O)cc1)C(=O)N2  Dual specificity mitogen-activated protein kinase kinase 1 (Homo sapiens) (UniProt Q02750)             %          0.13
 8  Cc1ccc(Nc2ccnc(Nc3cccc(C(N)=O)c3)n2)cc1O  Dual specificity mitogen-activated protein kinase kinase 1 (Homo sapiens) (UniProt Q02750)             %          4.22
 9  NS(=O)(=O)c1cccc(Nc2cc(-c3ccc(F)cc3)n[nH]2)c1  Dual specificity mitogen-activated protein kinase kinase 1 (Homo sapiens) (UniProt Q02750)             %          5.05
10  Nc1ccc(C#Cc2cncnc2Nc2ccc(OCc3cccc(F)c3)c(Cl)c2)cc1  Dual specificity mitogen-activated protein kinase kinase 1 (Homo sapiens) (UniProt Q02750)             %           2.6

###

# Assayed system: Ribosomal protein S6 kinase alpha-2 (Homo sapiens);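 also: reported value is the mean percent inhibition of RSK3, from the GSK PKIS screening panel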
# Condition details: at 0.1 µM
Property: inhibition (%)

In [3]: df
Out[3]:
                                    compound                            assayed_system    property  result_value
 0  FC(F)(F)c1ccc(-c2nn3ncccc3c2-c2ccnc(Nc3ccc4c(c3)OCCO4)n2)cc1  Ribosomal protein S6 kinase alpha-2 (Homo sapiens)  inhibition         -0.87
 1  CN(c1ccc(NC(=O)Nc2ccc(OC(F)(F)F)cc2)cc1)c1ccnc(Nc2cccc(S(N)(=O)=O)c2)n1  Ribosomal protein S6 kinase alpha-2 (Homo sapiens)  inhibition          1.62
 2  Cc1cc(Cl)cc2c1NC(=O)C2=NNc1ccc(S(N)(=O)=O)cc1  Ribosomal protein S6 kinase alpha-2 (Homo sapiens)  inhibition          2.57
 3  Cc1ccc(Nc2ccnc(Nc3cccc(C(N)=O)c3)n2)cc1O  Ribosomal protein S6 kinase alpha-2 (Homo sapiens)  inhibition          1.81
 4  CCn1c(-c2nonc2N)nc2c(C#CC(C)(C)O)nc(OCCNC)cc21  Ribosomal protein S6 kinase alpha-2 (Homo sapiens)  inhibition          3.02
 5   COc1ccc2ncnc(Nc3ccc(OCc4ccccc4)cc3)c2c1  Ribosomal protein S6 kinase alpha-2 (Homo sapiens)  inhibition           0.9
 6  COc1cc2ncn(-c3cc(OCc4ccccc4S(C)(=O)=O)c(C#N)s3)c2cc1OC  Ribosomal protein S6 kinase alpha-2 (Homo sapiens)  inhibition          3.37
 7     COc1cc(/C=N/Nc2ncnc3c2cnn3C(C)C)ccc1O  Ribosomal protein S6 kinase alpha-2 (Homo sapiens)  inhibition          1.98
 8  O=S(=O)(CCOCc1ccc(-c2ccc3ncnc(Nc4ccc(OCc5cccc(F)c5)c(Cl)c4)c3c2)o1)c1ccccc1  Ribosomal protein S6 kinase alpha-2 (Homo sapiens)  inhibition         -0.87
 9  COc1cccc(-n2ncc3c(N/N=C/c4ccc(S(C)(=O)=O)cc4)ncnc32)c1  Ribosomal protein S6 kinase alpha-2 (Homo sapiens)  inhibition          1.87
10  Cc1ccc2c(-c3ccnc(Nc4cccc(C(F)(F)F)c4)n3)c(-c3ccccc3)nn2n1  Ribosomal protein S6 kinase alpha-2 (Homo sapiens)  inhibition          3.58
11  O=C1Nc2ccccc2/C1=C/Nc1ccc2[nH]c(=O)[nH]c2c1  Ribosomal protein S6 kinase alpha-2 (Homo sapiens)  inhibition          4.19
12  Nc1nccc(-c2c(-c3ccc(F)cc3)ncn2CCCN2CCOCC2)n1  Ribosomal protein S6 kinase alpha-2 (Homo sapiens)  inhibition          3.04
13  CCCN1CCCC(c2ccc(Nc3nc(Nc4cc(F)ccc4C(N)=O)c4cc[nH]c4n3)c(OC)c2)C1 (centres undefined)  Ribosomal protein S6 kinase alpha-2 (Homo sapiens)  inhibition          9.15

###

# Assayed system: MAP/microtubule affinity-regulating kinase 4 (Homo sapiens);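 also: reported value is a mean MARK4 inhibition at 1 µM, taken from the GSK PKIS screening set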
# Condition details: at 1 µM
Property: inhibition (%)

                           structure_smiles    property  result_value
0  O=C1Nc2ccccc2/C1=C/Nc1ccc2[nH]c(=O)[nH]c2c1  inhibition          27.1
1  NS(=O)(=O)c1cccc(Nc2cc(-c3ccc(F)cc3)n[nH]2)c1  inhibition          20.2
2         N#Cc1c(NC(=O)c2ccccc2F)sc2c1CCCC2  inhibition          3.48

The origin of these recorded values is ChEMBL document CHEMBL1961873.
